Tested on: HUVECs
Assay: High-content imaging cytotoxicity in HUVECs, 24 h
Type: cell-based, human
Conditions: Homo sapiens, HUVEC, 24 h, HUVECs, 24 hr, 100.00 µM; 0.00 µM = 100.00; read-out: huvec.cyto.24hr
For each record, write down the corresponding viability at 100 µM.
State just the number; it will be interpreted in %.

Prompt line: Entry under review: Oc1ccc(-c2cccc(Cl)c2)cc1Cl [4-OH PCB11] . Reported viability at 100 µM?
Response line: 34.6

Prompt line: Entry under review: O=C1C=CC(=O)C(c2ccc(Cl)cc2)=C1 [4-Cl-BQ, 2-(4-Chlorophenyl)benzo-2,5-quinone] . Reported viability at 100 µM?
Response line: 87.4

Prompt line: Entry under review: COc1ccc(-c2cccc(Cl)c2)cc1Cl [4-OMe PCB11] . Reported viability at 100 µM?
Response line: 56.3

Prompt line: Entry under review: Clc1ccc(Cl)c(-c2cc(Cl)ccc2Cl)c1 [PCB52] . Reported viability at 100 µM?
Response line: 45

----------
Test system: HUVECs
Assay: Tube formation (tubulogenesis) assay in HUVECs, 18 h
Type: cell-based, human
Settings: Homo sapiens, HUVEC, 18 h, HUVEC, tube formation tlps, read-out: POD huvec.tlps.18hr
Structures can show the parent of a compound that is named as a salt.
Observed property: log10 minimal effective concentration (log10 of the value in µM)
Field: value | Transform: log10 | Quantity: minimal effective concentration | Unit: µM

Prompt line: API: value(readout= log10 minimal effective concentration, system= HUVECs, query= Clc1cc(Cl)c(-c2cc(Cl)c(Cl)cc2Cl)cc1Cl )
Response line: 1.79

Prompt line: API: value(readout= log10 minimal effective concentration, system= HUVECs, query= O=S(=O)(O)Oc1cc(Cl)c(-c2cc(Cl)ccc2Cl)cc1Cl [4-PCB 52 sulfate] )
Response line: 1.00

Prompt line: API: value(readout= log10 minimal effective concentration, system= HUVECs, query= Oc1ccc(-c2cccc(Cl)c2)cc1Cl )
Response line: 1.55

Prompt line: API: value(readout= log10 minimal effective concentration, system= HUVECs, query= COc1ccc(-c2ccc(Cl)cc2)cc1 )
Response line: 1.69

Prompt line: API: value(readout= log10 minimal effective concentration, system= HUVECs, query= Oc1cccc(-c2ccc(Cl)cc2)c1 )
Response line: 0.00

Prompt line: API: value(readout= log10 minimal effective concentration, system= HUVECs, query= O=S(=O)(O)Oc1ccc(-c2ccc(Cl)cc2)cc1 [4'-PCB 3 sulfate] )
Response line: 2.00

Prompt line: API: value(readout= log10 minimal effective concentration, system= HUVECs, query= COc1cc(Cl)c(-c2cc(Cl)ccc2Cl)cc1Cl )
Response line: 1.15

----------
Tested on: iCell endothelial cells (human iPSC-derived ECs)
Test: High-content imaging cytotoxicity in iCell endothelial cells, 24 h
Assay type: cell-based
Conditions: Homo sapiens, Endothelial cell, iPSC-EC, 24 hr, 100.00 µM, 0.00 µM control = 100.00, read-out: endo.tc.24hrs
Counter-ions that a name gives are not always drawn.
For each record, write down the corresponding viability at 100 µM.
State just the number; it will be interpreted in %.

Prompt line: Entry under review: O=C1C=CC(=O)C(c2ccc(Cl)cc2)=C1 [4-Cl-BQ, 2-(4-Chlorophenyl)benzo-2,5-quinone] . Reported viability at 100 µM?
Response line: 31.3

Prompt line: Entry under review: Oc1ccc(-c2cccc(Cl)c2)cc1Cl [4-OH PCB11] . Reported viability at 100 µM?
Response line: 78.1

Prompt line: Entry under review: Clc1ccc(-c2ccccc2)cc1 [PCB3] . Reported viability at 100 µM?
Response line: 105

Prompt line: Entry under review: O=S(=O)(O)Oc1ccc(-c2cccc(Cl)c2)cc1Cl [4-yl PCB 11 sulfate] . Reported viability at 100 µM?
Response line: 98.5

Prompt line: Entry under review: Oc1ccccc1-c1ccc(Cl)cc1 [2'-OH PCB3] . Reported viability at 100 µM?
Response line: 87

Prompt line: Entry under review: O=S(=O)(O)Oc1cccc(-c2ccc(Cl)cc2)c1 [3'-yl PCB 3 sulfate] . Reported viability at 100 µM?
Response line: 98.5

----------
Test system: HUVECs
Experiment: High-content imaging cytotoxicity in HUVECs, 24 h
Format: cell-based, human
Settings: Homo sapiens, HUVEC, 24 h, HUVEC, nma, 24 hr; read-out: POD huvec.nma.24hr
Counter-ions that a name gives are not always drawn.
Observed property: minimal effective concentration (µM)
State just the number; it will be interpreted in µM.

Prompt line: Entry under review: COc1ccc(-c2cccc(Cl)c2)cc1Cl . Reported minimal effective concentration?
Response line: 6.39

Prompt line: Entry under review: Oc1ccc(-c2cccc(Cl)c2)cc1Cl . Reported minimal effective concentration?
Response line: 0.99

Prompt line: Entry under review: Clc1ccc(-c2ccccc2)cc1 . Reported minimal effective concentration?
Response line: 100

Prompt line: Entry under review: O=S(=O)(O)Oc1cc(Cl)c(-c2cc(Cl)ccc2Cl)cc1Cl [4-PCB 52 sulfate] . Reported minimal effective concentration?
Response line: 33.9

----------
System: iCell endothelial cells (human iPSC-derived ECs)
Test: Tube formation (tubulogenesis) assay in iCell endothelial cells, 18 h
Assay type: cell-based
Details: Homo sapiens, Endothelial cell, iPSC-EC tube formation, 18 hr, 10.00 µM, 0.00 µM control = 100.00, read-out: endo.tta.18hr
Counter-ions that a name gives are not always drawn.
Observed property: activity at 10 µM (%)
State just the number; it will be interpreted in %.

Prompt line: API: value(readout= activity at 10 µM, system= iCell endothelial cells (human iPSC-derived ECs), query= Clc1cccc(-c2cccc(Cl)c2)c1 [PCB11] )
Response line: 80.8

Prompt line: API: value(readout= activity at 10 µM, system= iCell endothelial cells (human iPSC-derived ECs), query= O=S(=O)(O)Oc1cccc(-c2ccc(Cl)cc2)c1 [3'-yl PCB 3 sulfate] )
Response line: 63.7

Prompt line: API: value(readout= activity at 10 µM, system= iCell endothelial cells (human iPSC-derived ECs), query= Clc1ccc(-c2ccccc2)cc1 [PCB3] )
Response line: 109

Prompt line: API: value(readout= activity at 10 µM, system= iCell endothelial cells (human iPSC-derived ECs), query= O=S(=O)(O)Oc1cc(Cl)ccc1-c1ccccc1 [2-yl PCB 3 sulfate] )
Response line: 60.9

Prompt line: API: value(readout= activity at 10 µM, system= iCell endothelial cells (human iPSC-derived ECs), query= O=S(=O)(O)Oc1ccc(-c2ccc(Cl)cc2)cc1 [4'-yl PCB 3 sulfate] )
Response line: 81.2

----------
Test system: iPSC-CMs, iPSC-ECs and HUVECs phenotypes
Test: ToxPi 2.0 integration of POD values and physicochemical descriptors
Set-up: species or system human
Conditions: ToxPi-scaled (0-1) score; iPSC endothelial cells, 24 h
Experimental: Phenotypic responses were quantitatively assessed using concentration–response modeling as detailed elsewhere ([Sirenko et al. 2017]). Briefly, phenotypic readouts were normalized to vehicle controls and fit to a four-parameter logistic model in R studio software (version 3.1.1; R Development Core Team). […] The ability of physicochemical properties to predict differences in PODs were evaluated by multiregression and mixed-effects modeling using R. […]
Observed property: endo.cyto.24hr
Please state the value as a number alone, without comment.

Prompt line: Entry under review: O=C1C=CC(=O)C(c2ccc(Cl)cc2)=C1 [4-Cl-BQ, 2-(4-Chlorophenyl)benzo-2,5-quinone] . Reported endo.cyto.24hr?
Response line: 0.5702

Prompt line: Entry under review: Oc1cc(Cl)cc(-c2cccc(Cl)c2)c1 [5-OH-PCB 11] . Reported endo.cyto.24hr?
Response line: 0.1503

Prompt line: Entry under review: Clc1ccc(-c2cc(Cl)c(Cl)c(Cl)c2)cc1Cl [PCB 126, 3,3′,4,4′,5-pentachlorobiphenyl] . Reported endo.cyto.24hr?
Response line: 1

Prompt line: Entry under review: Oc1ccc(-c2cccc(Cl)c2)cc1Cl [4-OH-PCB 11] . Reported endo.cyto.24hr?
Response line: 0.145

Prompt line: Entry under review: Clc1ccc(Cl)c(-c2c(Cl)ccc(Cl)c2Cl)c1Cl [(+)-PCB 136, 2,2′,3,3′,6,6′-hexachlorobiphenyl] . Reported endo.cyto.24hr?
Response line: 0.1692

----------
Test system: iCell cardiomyocytes (human iPSC-derived cardiomyocytes)
Assay: High-content imaging of cytotoxicity and mitochondrial integrity in iPSC-CMs
Assay type: cell-based
Settings: Homo sapiens, Cardiomyocyte, 1.5 h, 0.01 µM; 90min; 0.00 µM = 100.00; read-out: cm.cam.90min
For each record, write down the corresponding viability at 0.01 µM.
State just the number; it will be interpreted in %.

Prompt line: Entry under review: Clc1ccc(Cl)c(-c2c(Cl)ccc(Cl)c2Cl)c1Cl [(+)-PCB 136, 2,2′,3,3′,6,6′-hexachlorobiphenyl] . Reported viability at 0.01 µM?
Response line: 94

Prompt line: Entry under review: Clc1ccc(-c2cc(Cl)c(Cl)c(Cl)c2)cc1Cl . Reported viability at 0.01 µM?
Response line: 107

Prompt line: Entry under review: Clc1cc(Cl)c(-c2cc(Cl)c(Cl)cc2Cl)cc1Cl . Reported viability at 0.01 µM?
Response line: 98.3

Prompt line: Entry under review: Oc1cc(Cl)c(-c2cc(Cl)ccc2Cl)cc1Cl . Reported viability at 0.01 µM?
Response line: 89.4
